target: Peroxisome proliferator-activated receptor alpha (Homo sapiens); assay: Agonist activity at human PPARalpha ligand binding domain expressed in COS-1 cells co-transfected with Gal4 after 24 hrs by luciferase reporter gene assay
Sequence (Q07869 whole entry, the tested form may be a part): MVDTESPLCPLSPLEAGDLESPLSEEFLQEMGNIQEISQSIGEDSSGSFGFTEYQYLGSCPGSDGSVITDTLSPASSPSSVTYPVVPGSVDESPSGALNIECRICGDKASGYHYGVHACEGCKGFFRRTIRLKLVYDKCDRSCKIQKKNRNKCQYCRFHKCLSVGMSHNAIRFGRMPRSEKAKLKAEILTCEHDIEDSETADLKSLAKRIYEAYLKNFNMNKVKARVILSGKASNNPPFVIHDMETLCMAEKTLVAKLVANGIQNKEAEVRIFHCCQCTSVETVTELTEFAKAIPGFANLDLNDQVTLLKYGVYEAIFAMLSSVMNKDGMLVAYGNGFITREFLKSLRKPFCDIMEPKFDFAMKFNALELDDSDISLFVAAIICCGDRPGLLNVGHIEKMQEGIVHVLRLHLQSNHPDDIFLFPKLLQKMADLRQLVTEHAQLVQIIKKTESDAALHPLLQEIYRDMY
MEASURED QUANTITY: EC50 (nM)
Report the value in nM with no unit label.

CCc1cc(SCc2sc(-c3ccc(C(F)(F)F)cc3)nc2C)ccc1OC(F)C(=O)O (racemic) : 710
CC/C=C\C/C=C\C/C=C\C/C=C\CC/C=C/C=C/C(=O)O : 32
Cc1cc(SCc2sc(-c3ccc(C(F)(F)F)cc3)nc2C)ccc1OC(F)C(=O)O (racemic) : 560

Output measured EC50 for this item: Cc1nc(-c2ccc(C(F)(F)F)cc2)sc1CSc1ccc(OC(F)C(=O)O)c(C(C)C)c1 (racemic)
735

----------
Catalogue of pEC50 readings, one per entry.
Molecular target: Peroxisome proliferator-activated receptor delta (Homo sapiens, UniProt Q03181)
Sequence (Q03181 whole entry): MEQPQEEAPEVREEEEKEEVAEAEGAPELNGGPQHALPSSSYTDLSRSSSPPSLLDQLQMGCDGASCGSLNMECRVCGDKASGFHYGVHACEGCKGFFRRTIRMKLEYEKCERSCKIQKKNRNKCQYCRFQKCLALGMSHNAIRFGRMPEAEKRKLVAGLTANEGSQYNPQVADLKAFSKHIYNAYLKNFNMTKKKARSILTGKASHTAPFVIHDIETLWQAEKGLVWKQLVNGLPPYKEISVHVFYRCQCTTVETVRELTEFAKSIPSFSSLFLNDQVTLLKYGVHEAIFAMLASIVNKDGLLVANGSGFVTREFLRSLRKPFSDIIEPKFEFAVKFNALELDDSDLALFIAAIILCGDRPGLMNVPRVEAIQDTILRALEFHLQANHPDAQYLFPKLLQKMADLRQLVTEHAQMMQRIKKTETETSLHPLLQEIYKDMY
Test: Agonist activity at human PPARdelta ligand binding domain expressed in COS-1 cells after 24 hrs by luciferase reporter gene-based luminometric analysis
Reminder that pEC50 is minus the log10 of a molar concentration.

CCc1cc(SCc2sc(-c3ccc(C(F)(F)F)cc3)nc2C)ccc1OC(F)C(=O)O (racemic) : 6.54
Cc1cc(SCc2sc(-c3ccc(C(F)(F)F)cc3)nc2C)ccc1OC(F)C(=O)O (racemic) : 7.26

Below: the item to evaluate.
Output measured pEC50 for this item: Cc1nc(-c2ccc(C(F)(F)F)cc2)sc1CSc1ccc(OC(F)C(=O)O)c(C(C)C)c1 (racemic)
6.24
